Assign DC50 to each entry below.
target: BRAF V600E (Homo sapiens, UniProt P15056+Q96SW2, V600E); construct: knock-in of the HiBiT tag to the endogenous BRAF V600E locus; host or cells: A375.10 (A375 clonal line, CRISPR HiBiT knock-in at the endogenous BRAF V600E locus); experiment: BRAF V600E HiBiT Degradation Assay; assay type: cell-based; settings: A375.10 cells, BRAF V600E, 6 hours; read-out: HiBiT-Degradation A375.10 BRAF 6 hours DC50
Sequence (P15056 whole entry V600E): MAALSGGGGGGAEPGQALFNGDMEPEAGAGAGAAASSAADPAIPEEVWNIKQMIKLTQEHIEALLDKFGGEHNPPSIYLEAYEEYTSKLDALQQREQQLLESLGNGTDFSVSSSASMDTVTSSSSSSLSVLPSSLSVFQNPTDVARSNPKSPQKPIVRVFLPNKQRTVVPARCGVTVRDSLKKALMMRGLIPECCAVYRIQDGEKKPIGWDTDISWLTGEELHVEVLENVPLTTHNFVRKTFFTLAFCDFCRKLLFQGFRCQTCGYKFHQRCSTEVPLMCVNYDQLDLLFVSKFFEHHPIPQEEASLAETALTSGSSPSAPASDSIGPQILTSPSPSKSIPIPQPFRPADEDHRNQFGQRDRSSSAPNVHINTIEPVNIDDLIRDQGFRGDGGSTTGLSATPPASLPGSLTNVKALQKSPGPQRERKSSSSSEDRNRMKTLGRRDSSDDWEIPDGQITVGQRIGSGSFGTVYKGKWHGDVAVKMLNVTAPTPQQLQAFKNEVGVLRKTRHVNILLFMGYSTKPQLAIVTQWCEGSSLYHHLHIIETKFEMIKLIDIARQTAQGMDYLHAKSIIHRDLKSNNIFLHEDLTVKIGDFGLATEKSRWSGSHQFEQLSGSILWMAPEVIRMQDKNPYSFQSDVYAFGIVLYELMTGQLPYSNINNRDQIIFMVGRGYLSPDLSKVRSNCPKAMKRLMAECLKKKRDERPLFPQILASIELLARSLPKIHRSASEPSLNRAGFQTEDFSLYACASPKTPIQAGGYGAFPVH
Sequence (Q96SW2 whole entry): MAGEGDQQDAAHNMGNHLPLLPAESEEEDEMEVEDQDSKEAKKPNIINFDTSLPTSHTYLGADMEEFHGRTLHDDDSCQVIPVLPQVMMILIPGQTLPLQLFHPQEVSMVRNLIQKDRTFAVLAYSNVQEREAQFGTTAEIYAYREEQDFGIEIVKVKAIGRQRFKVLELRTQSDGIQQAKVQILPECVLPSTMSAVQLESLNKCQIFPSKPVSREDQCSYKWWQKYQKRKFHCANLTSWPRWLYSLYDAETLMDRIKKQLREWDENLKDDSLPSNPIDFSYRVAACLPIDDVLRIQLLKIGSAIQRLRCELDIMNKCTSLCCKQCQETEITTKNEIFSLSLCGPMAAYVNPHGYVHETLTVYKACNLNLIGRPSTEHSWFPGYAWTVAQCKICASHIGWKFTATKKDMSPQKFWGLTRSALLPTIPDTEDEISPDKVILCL
Sequence (Q16531 whole entry partner): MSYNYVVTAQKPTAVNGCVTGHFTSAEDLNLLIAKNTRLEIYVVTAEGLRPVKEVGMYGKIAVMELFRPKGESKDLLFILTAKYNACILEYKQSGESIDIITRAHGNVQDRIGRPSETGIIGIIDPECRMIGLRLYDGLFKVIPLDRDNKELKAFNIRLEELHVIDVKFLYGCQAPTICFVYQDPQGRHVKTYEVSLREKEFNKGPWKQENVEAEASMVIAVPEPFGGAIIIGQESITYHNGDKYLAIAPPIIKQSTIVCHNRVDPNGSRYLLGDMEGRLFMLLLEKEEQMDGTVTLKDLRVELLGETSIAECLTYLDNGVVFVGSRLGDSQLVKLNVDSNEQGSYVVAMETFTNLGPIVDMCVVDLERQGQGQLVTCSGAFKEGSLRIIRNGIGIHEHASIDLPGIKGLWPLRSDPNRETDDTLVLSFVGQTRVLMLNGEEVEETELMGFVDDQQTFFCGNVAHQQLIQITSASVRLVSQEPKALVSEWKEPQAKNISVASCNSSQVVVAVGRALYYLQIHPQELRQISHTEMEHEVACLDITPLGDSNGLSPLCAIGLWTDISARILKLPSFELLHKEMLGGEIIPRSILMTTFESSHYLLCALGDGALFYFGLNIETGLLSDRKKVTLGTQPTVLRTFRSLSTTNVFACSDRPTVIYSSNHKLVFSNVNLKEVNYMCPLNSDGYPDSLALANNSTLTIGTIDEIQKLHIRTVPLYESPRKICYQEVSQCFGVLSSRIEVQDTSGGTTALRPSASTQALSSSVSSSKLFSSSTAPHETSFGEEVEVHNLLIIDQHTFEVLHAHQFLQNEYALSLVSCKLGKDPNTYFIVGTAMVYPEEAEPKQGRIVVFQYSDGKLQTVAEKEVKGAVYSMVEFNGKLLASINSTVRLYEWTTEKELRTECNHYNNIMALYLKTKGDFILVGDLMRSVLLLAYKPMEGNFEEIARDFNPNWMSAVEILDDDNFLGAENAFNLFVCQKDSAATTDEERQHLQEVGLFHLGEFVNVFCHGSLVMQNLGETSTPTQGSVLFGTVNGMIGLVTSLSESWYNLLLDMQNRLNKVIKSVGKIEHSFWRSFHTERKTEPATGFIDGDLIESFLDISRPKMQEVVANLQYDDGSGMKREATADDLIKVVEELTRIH

input: Annotate the molecule CCN(C)S(=O)(=O)Nc1ccc(F)c(Oc2ccc3ncn(CC4CCN(C5CCC(c6cc7c(cc6F)c(N6CCC(=O)NC6=O)nn7C)CC5)CC4)c(=O)c3c2)c1C#N (single isomer, unassigned) with its measured DC50.
output: < 1000 nM

input: Give a short answer stating reported DC50 for CCN(C)S(=O)(=O)Nc1ccc(F)c(Oc2ccc3ncc(OC4CCN(C5CCC(c6ccc(NC7CCC(=O)NC7=O)cc6F)CC5)CC4)nc3c2)c1C#N (single isomer, unassigned) .
output: < 1000 nM

input: Consider the molecule Cn1nc(N2CCC(=O)NC2=O)c2cc(F)c(C3CCC(N4CCC5(CC4)C[C@@H](n4cnc6ccc(Oc7c(F)ccc(NS(=O)(=O)N8CC[C@@H](F)C8)c7C#N)cc6c4=O)CO5)CC3)cc21 (single isomer, unassigned) . State its measured DC50.
output: < 1000 nM

* * *

Kindly state DC50 for each of the entries shown.
molecular target: BRAF V600E (Homo sapiens, UniProt P15056+Q96SW2, V600E); construct: knock-in of the HiBiT tag to the endogenous BRAF V600E locus; host or cells: A375.10 (A375 clonal line, CRISPR HiBiT knock-in at the endogenous BRAF V600E locus); test: BRAF V600E HiBiT Degradation Assay; type: cell-based; conditions: A375.10 cells, BRAF V600E, 2 hours; inflection point; read-out: HiBiT-Degradation A375.10 BRAF 2 hours IP

input: Tell us which DC50 value is on record for CO[C@H]1CCN(S(=O)(=O)Nc2ccc(F)c(Oc3ccc4ncn(C5CC6(CCN(C7CCC(c8cc9c(cc8F)c(N8CCC(=O)NC8=O)nn9C)CC7)CC6)C5)c(=O)c4c3)c2C#N)C1 (single isomer, unassigned) [Compound 103]
output: < 1000 nM

input: Note down DC50 recorded for CCN(C)S(=O)(=O)Nc1ccc(F)c(Oc2ccc3ncn([C@H]4COC5(CCN(C6C7COCC6CC(c6ccc(NC8CCC(=O)NC8=O)cc6F)C7)CC5)C4)c(=O)c3c2)c1C#N (stereo partly drawn)
output: < 1000 nM

input: Let me know recorded DC50 for CCN(C)S(=O)(=O)Nc1ccc(F)c(Oc2ccc3ncn([C@H]4COC5(CCN(C6CC(c7ccc(NC8CCC(=O)NC8=O)cc7F)C6)CC5)C4)c(=O)c3c2)c1C#N (single isomer, unassigned) [Compound 62] , thanks.
output: < 1000 nM

* * *

test: Example 7 pharmacokinetics assay for PKPD study (plasma, tumor, liver); assay type: in vivo, BALB/c nude mice; settings: mouse, tumor, po; 10 mg/kg, p.o., single dose; 6 h; read-out: Concentration in Tumor (mean ± SEM)
Assignment: determine reported concentration at 6 h for the given compounds.
Output spec: scalar in ng/g, unitless text.

input: Could you please provide reported concentration at 6 h for CCN(C)S(=O)(=O)Nc1ccc(F)c(Oc2ccc3ncn(C4CC5(CCN(C6CC7(C6)CN(c6cc8c(cc6F)c(N6CCC(=O)NC6=O)nn8C)C7)CC5)C4)c(=O)c3c2)c1C#N (stereo not shown) ? Thanks!
output: 2230

input: Tell us which concentration at 6 h value is on record for CCN(C)S(=O)(=O)Nc1ccc(F)c(Oc2ccc3ncc(C4CC5(CCN(C6CCC(c7cc8c(cc7F)c(N7CCC(=O)NC7=O)nn8C)CC6)CC5)C4)nc3c2)c1C#N (single isomer, unassigned)
output: 245

input: Quote concentration at 6 h reported for `CCN(C)S(=O)(=O)Nc1ccc(F)c(Oc2ccc3ncn(C4CC5(CCN(C6CCN(c7cc8c(cc7F)c(N7CCC(=O)NC7=O)nn8C)CC6)CC5)C4)c(=O)c3c2)c1C#N` please.
output: 295

input: Look up and state reported concentration at 6 h for CCN(C)S(=O)(=O)Nc1ccc(F)c(Oc2ccc3ncc(OCC4CCN(C5CCC(c6cc7c(cc6F)c(N6CCC(=O)NC6=O)nn7C)CC5)CC4)nc3c2)c1C#N (single isomer, unassigned)
output: 855
